Provenance of the data: a melting point compilation (Tetko et al.; mined from patent text by program, amines drawn as free bases though some values may be those of a salt)

Provide the recorded melting point for the entries that follow.

Below: 6 molecules and their reported melting point.
molecule=NCCCCc1cnc(-c2ccccc2)s1 result="62 to 64 °C"
molecule=COC(=O)C=C(Nc1ccc2[nH]c(=O)oc2c1)C(=O)OC result="172 °C"
molecule=CCC(CC)Nc1cc(C)nc(Nc2c(C)cc(C)cc2C)c1CC(C(=O)OC)C(=O)OC result="136 to 138 °C"
molecule=CCOC(=O)c1ncn2c1CN(Cc1ccc(OC)cc1OC)C(=O)c1cc(F)ccc1-2 result="159 to 160 °C"
molecule="O=C(OCc1ccccc1)C(O)P(=O)(OCc1ccccc1)OCc1ccccc1 (stereo unspecified)" result="67 to 68 °C"
molecule=Cc1cccc(C(=O)c2nc(-c3ccccn3)no2)c1 result="127 to 128 °C"

Below are 5 molecules. Give each one its melting point.
1. Cc1cccc(C(=NO)c2ccc(Cl)cc2)c1O
2. FC(F)(F)c1ccc(-c2ncc(-c3cccs3)s2)cc1
3. CCCc1nc(CSc2ccc(CCC(=O)O)cc2)c(C(=O)O)n1Cc1cc2c(cc1Cl)OCO2
4. CC1(C)CCCC2(C)CC(O)CCC12 (stereo unspecified)
5. COc1cc2ncnc(-c3nnn[nH]3)c2cc1OC

OUTPUT:
1: 178 °C; 2: 154 to 155 °C; 3: 171 °C; 4: 53 to 54 °C; 5: 207 °C

* * *

Provide the recorded melting point for the entries that follow.

compound=O=C(c1ccccc1)c1c[nH]c2ccc(OCc3ccc4ccccc4n3)cc12 result="214 to 216 °C"
compound=CN(C(N)=O)c1ccccc1S result="73 to 75 °C"
compound="OC(CCSC(=S)Nc1ccc(Cl)cn1)c1ccccc1 (stereo not drawn)" result="91 °C"
compound=CCc1nc(CC(=O)O)no1 result="58 to 60 °C"
compound=NC(CN1C(=O)c2ccccc2C1=O)=NO result="192 to 195 °C"

Below are 5 compounds. Give each one its melting point.
1. CC12CC(=O)C3C(CCC4CC(O)CCC43C)C1CCC2C(=O)CCc1ccccn1 (stereo not drawn)
2. Cc1nc(-c2nn(-c3ccccc3)c(=O)cc2Oc2ccccc2)n[nH]1
3. CCCCCCCCCCCCCCCCCCOC(=O)CCc1cc(C)c(O)c(C(C)(C)C)c1
4. Cc1cc(C#N)cc(C(=O)c2c(C(C)C)c(=O)[nH]c(=O)n2C(C)C)c1
5. NCCCCCC(N)=O

OUTPUT:
["179 to 180 °C", "245 to 247 °C", "58 to 59 °C", "278 to 280 °C", "49 to 50 °C"]

Below are 7 compounds. Give each one its melting point.
1. CCC(C#N)(Cn1cncn1)c1ccc(Br)cc1 (stereo not drawn)
2. NC1=NN(c2ccc(OCc3ccccc3)cc2)CC1
3. Cc1cc(C)c(CS(=O)c2ccccc2)c(-c2ccc(F)c(C)c2)c1 (stereo not drawn)
4. C=CCc1cc2c(cc1O)CCC(=O)N2CC=Cc1ccccc1
5. CCC(=O)N1c2ccccc2CC1C(=O)O (stereo not drawn)
6. O=S(=O)(Nc1ccccc1O)c1cc(S(=O)(=O)Nc2ccccc2O)c2cc(O)ccc2c1
7. Nc1ccc2c(c1Br)COC2=O

OUTPUT:
1. 68 to 70 °C
2. 148 to 149 °C
3. 75 to 85 °C
4. 199 to 203 °C
5. 173 to 175 °C
6. 118 to 120 °C
7. 176 to 180 °C

* * *

Measured endpoint: melting point

compound=COC(=O)c1ccc(N)c(C(=O)C(=O)OC(=O)C(=O)c2cc(C(=O)OC)ccc2N)c1 measured_endpoint="melting point" result="256 to 257 °C"
compound=O=c1c2c(nc3ccc(Cl)cn13)C(=Cc1ccccc1)CC2 measured_endpoint="melting point" result="212 to 213 °C"
compound=Fc1ccc(-n2nc(N3CCNCC3)c3ccccc32)cc1 measured_endpoint="melting point" result="85 to 87 °C"

Below are 4 compounds. Give each one its melting point.
1. COc1ccc(C=CC=O)cc1OCc1nc(-c2ccccc2)oc1C
2. CC(CCCCCCCCCCCCC(=O)O)CC(=O)O (centres undefined)
3. Cc1cc(-c2nc3ccccc3c(=O)n2-c2ccc(C(C)C)cc2)cc(C)c1OCCO
4. CC(C)(C)C(O)(COc1ccc(Cl)cc1)Cn1cncn1 (centres undefined)

OUTPUT:
136 to 137 °C
77 to 78 °C
160 to 162 °C
57 °C

Below are 6 compounds. Give each one its melting point.
1. CC(N)C(=O)NC(Cc1ccccc1)C(=O)NCC(=O)Oc1c(Cl)c(Cl)c(Cl)c(Cl)c1Cl (centres undefined)
2. CCON=Cc1c(S(C)(=O)=O)ccc(C(=O)C2C(=O)CC(C)(C)CC2=O)c1Cl
3. O=C(NCCCc1ccccc1)c1ccc2c(c1)C(Cl)(Cl)c1cc(C(=O)NCCCc3ccccc3)ccc1-2
4. COC(=O)/C(C#N)=C/c1ccccc1
5. Cc1cc(-c2ccc(S(N)(=O)=O)cc2)n(-c2ccc(C)c(C)c2)c1
6. COc1ccc(S(=O)(=O)n2cc(F)c(N)nc2=O)cc1

OUTPUT:
180 to 183 °C
156 to 157 °C
165 to 167 °C
90 to 91 °C
118 to 120 °C
158 to 162 °C

Below are 7 compounds. Give each one its melting point.
1. CSc1nccc(-c2cccc(C(F)(F)F)c2)n1
2. O=c1[nH]nc(-c2cc(C(F)(F)F)cc(C(F)(F)F)c2)n1-c1cc(Cl)ccc1O
3. COC(=O)C(CCSC)NC(=O)c1ccc(NCC2CC(O[Si](C)(C)C(C)(C)C)CN2C(=O)OC(C)(C)C)cc1-c1ccccc1 (centres undefined)
4. CCOC(=O)C1=C(C)NC(COCCN2C(=O)c3ccccc3C2=O)=C(C(=O)OC)C1c1cccc(Cl)c1Cl (centres undefined)
5. CCOC(=O)c1cnc2ccc(Cl)cc2c1Cl
6. COC(=O)Nc1cc(OC)c(-c2ccc(C[C@H](NC(=O)c3c(Cl)cccc3Cl)C(=O)O)cc2)c(OC)c1
7. CSCn1c(C(F)(F)F)nc2c(Br)cc(C(F)(F)F)cc21

OUTPUT:
1. 89 to 90 °C
2. 275 to 278 °C
3. 48 °C
4. 165 °C
5. 87 to 88 °C
6. 235 to 236 °C
7. 56 to 60 °C

Below are 3 compounds. Give each one its melting point.
1. NC(=O)c1ccc(CCC[N@]2C[C@@H]2c2ccccc2)s1
2. Cc1[nH]cnc1CSCCNC(=N)NCCCc1c[nH]cn1
3. S=C(Nc1ccc(Cl)cc1)Nc1ncccc1OCc1c(Cl)cccc1Cl

OUTPUT:
117 to 119 °C
128 to 131 °C
179 to 180 °C

* * *

Provide the recorded melting point for the entries that follow.

Below: 6 compounds and their reported melting point.
compound=COC(=O)c1ncn2c1CN(C)C(=O)c1ccccc1-2 result="212 to 214 °C"
compound="CCCN1C(=O)C(NC(=O)C(N)Cc2ccccc2)N=C(N2CCN(C)CC2)c2ccccc21 (stereo not given)" result="152 to 153 °C"
compound=CCCCCCCCCCOc1ccccc1C(=N)OCC result="93 to 96 °C"
compound=CN(CCO)C(c1ccc(Cl)cc1)c1ccc(Cl)cc1 result="49 to 50 °C"
compound=CC(=O)NC[C@H]1CN(c2ccc(N3CCN(CCN4CCOCC4)CC3)c(F)c2)C(=O)O1 result="150 to 152 °C"
compound="COC(=O)C1CCC(n2ccn(-c3ccc4c(c3)CCC(C#N)C4)c2=O)CC1 (stereo not given)" result="116 to 118 °C"

Below are 4 compounds. Give each one its melting point.
1. Cc1nn(C)cc1C(=O)Nc1ccccc1
2. CCOC(=O)Nc1c(C)c(C)c2c(c1C)CC(C)(C)O2
3. CC1(O/N=C(\C(=O)O)c2csc(N)n2)CCCC1
4. Nc1ccc(CN2C(=O)[C@H]3CCC[C@H]3Nc3ccccc32)cc1 (relative stereo)

OUTPUT:
["91 to 92 °C", "102 to 104 °C", "182 to 183 °C", "149 to 150 °C"]

* * *

Provide the recorded melting point for the entries that follow.

Below: 6 compounds and their reported melting point.
compound="CNC(=O)C(NC(=O)c1ccc(F)cc1C(F)(F)F)C(O)C(F)(F)F (stereo not given)" result="212 °C"
compound=Nc1ccccc1C(=O)N1CCN(CCc2ccc(Cl)cc2)CC1 result="108 to 109 °C"
compound=C=C(Sc1ccc(Br)cc1)S(=O)(=O)c1ccc(Cl)cc1 result="45 to 95 °C"
compound=O=C(c1cc(Cl)ccc1Nc1ccncc1)N1CCCCC1 result="158 to 159 °C"
compound=O=C1c2ccc3c4cccc5cccc(c6ccc(c2c36)C(=O)N1CCO)c54 result="> 260 °C"
compound=CS(=O)(=O)Nc1cc([N+](=O)[O-])ccc1F result="128 to 129 °C"

Below are 4 compounds. Give each one its melting point.
1. CCOC(=O)c1c(C)nc2ccn(-c3ccc(Cl)cc3)n2c1=O
2. CC(=O)Nc1ccc(C(=O)CBr)cc1
3. CC(c1cccc(NC(=O)NC2N=C(c3ccccc3F)c3ccccc3N(CC(=O)N3CC4CCC(CC4)C3)C2=O)c1)S(=O)(=O)O (racemic)
4. CCn1c(=O)n(O)c(=O)c2cc(F)c(N3CCN(C)CC3)cc21

OUTPUT:
1. 175 to 177 °C
2. 192 °C
3. > 250 °C
4. 132 to 134 °C
